Origin of values: the supplement of paper PMC11451515

Test system: SEM cells
Assay: cell viability relative to DMSO control; higher = less cytotoxic
Conditions: RPMI 5 mM glucose + 10% dialyzed FBS; 48 h; 0.000781 µM
EXPERIMENTAL ENDPOINT: cell viability

Write down cell viability measured for item CN(C)CCN(Cc1ccc(Cl)cc1)c1ccccn1.Cl
83.2%

Write down cell viability measured for item CN(C)c1ccc(Nc2nc(N)n(C(=O)c3c(F)cccc3F)n2)cc1
102%

Write down cell viability measured for item NC(=O)c1cccc(N)c1
79.9%

Write down cell viability measured for item COC1=CC2=C(C=C1OC)[C@H]3[C@@H](CO2)OC4=C(C=CC5=C4\C=C/C(C)(C)O5)C3=O
87.7%

Write down cell viability measured for item N#CC(=C(/N)Sc1ccccc1N)/C(C#N)=C(\N)Sc1ccccc1N
116%

Write down cell viability measured for item CO[C@@H]1C(N(C)C(=O)c2ccccc2)C[C@H]2O[C@]1(C)n1c3ccccc3c3c4c(c5c6ccccc6n2c5c31)C(=O)NC4=O (stereo partly specified)
81.5%

* * *

Quick reference: AUC of viability dose-response curve of the listed items.
Test system: P12-Ichikawa
Experiment: AUC of viability dose-response curve (% viability x log10 dose units); higher = less sensitive
Details: RPMI 5 mM glucose + 10% FBS; 48 h
Reply briefly: the number, and no unit.

Write down AUC of viability dose-response curve measured for item Cc1cn(CCN2CCN(c3ccccc3-c3cc(C#N)cc(C(=O)NCCCN4CCCC4)c3)CC2)c2ccccc12
409

Write down AUC of viability dose-response curve measured for item CC(C)[C@H](CO)Nc1nc(Nc2cccc(Cl)c2)c2ncn(C(C)C)c2n1
404

Here is the next item to consider.
Write down AUC of viability dose-response curve measured for item COC1(C[S+]([O-])c2ccccc2)CCN(CCc2c[nH]c3ccc(F)cc23)CC1 (stereo not drawn)
408

* * *

System: P12-Ichikawa
Test: cell viability relative to DMSO control; higher = less cytotoxic
Details: RPMI 5 mM glucose + 10% FBS; 48 h; 1.71 µM
Quick reference: cell viability of the listed items.
Just the number in %, nothing appended.

Write down cell viability measured for item OC(COC1=C2C(=O)\C=C(/OC2=CC=C1)C([O-])=O)COC3=C4C(=O)\C=C(/OC4=CC=C3)C([O-])=O
89.3

Write down cell viability measured for item COC1(C[S+]([O-])c2ccccc2)CCN(CCc2c[nH]c3ccc(F)cc23)CC1 (centres undefined)
78.7

Write down cell viability measured for item O=C(NNC(=O)c1ccc(CN[S+](=O)([O-])c2ccc(F)c(Cl)c2)cc1)c1ccccc1
98.6

Here is the next item to consider.
Write down cell viability measured for item O=C(CCc1ccc(O)cc1)c1c(O)cc(O)cc1O[C@@H]1O[C@H](CO)[C@@H](O)[C@H](O)[C@H]1O
82.6

* * *

Quick reference: cell viability of the listed items.
System: NOMO1
Test: cell viability relative to DMSO control; higher = less cytotoxic
Settings: HPLM + 10% dialyzed FBS; 48 h; 46.1 µM
Just the number in %, nothing appended.

// output cell viability; input C[N+](C)([O-])CCNc1ccc(NCC[N+](C)(C)[O-])c2c1C(=O)c1c(O)ccc(O)c1C2=O ; system NOMO1
38.3

// output cell viability; input NC(=O)Nc1cc(-c2ccc(CN3CCOCC3)cc2)sc1C(N)=O ; system NOMO1
48.4

Here is the next item to consider.
// output cell viability; input CCCCCCCCc1ccc(CCC(N)(CO)CO)cc1 ; system NOMO1
2.93
